- targetOrTestSystem: HER2 on SKBR3 cells (human, UniProt P04626 23-1255)
- protocolNotes: cell-based or functional assay
measure: Migration assay, at 50 ug/ml (inhibition of migration of SKBR3 cells)
Lab note: write values as number then unit, every time.

# input binder: 11D7 (antibody, V domains shown, Hybridoma antibody from TC-mAb mice; also called AGRD017-11D7; fully human 11D7 antibody) VH: EVQLVESGGGLVQPGRSLRLSCAASGFTFDDYAMHWVRQAPGKGLEWVSGIAWNGGILGYADSVKGRFTISRDNAKNSLYLQMNSLRAEDTALYYCAKDTGSYSHWYFDLWGRGTLVTVSS VL: EIVMTQSPATLSVSPGERATLSCRASQSVRSNLAWYQQKPGQAPRLLIYGASTRATGIPARFSGSGSGTEFTLTISSLQSEDFAVYCCQQYNNWPTFGQGTKVEIK ; wanted: its Migration assay, at 50 ug/ml (inhibition of migration of SKBR3 cells)
32%

# input binder: 8C1 (antibody, IgG2a, V domains shown, also called AGRD017-8C1; fully human 8C1 antibody) VH: EVQLVESGGGLVQPGRSLRLSCTASGFTFDDYAMHWVRQAPGKGLEWVSGISWNGGTLGYADSVKGRFTISRDNAKNSLYLQMNSLRAEDTALYYCAKDTGSYSHWYFDLWGRGTLVTVSS VL: EIVMTQSPATLSVSPGERATLSCRASQSVRSNLAWYQQKPGQAPRLLIYGASTRATGIPARFSGSGSGTEFTLTISSLHSEDFAVYYCQQYNNWPTFGQGTKVEIK ; wanted: its Migration assay, at 50 ug/ml (inhibition of migration of SKBR3 cells)
32%

# input binder: 2A2 (antibody, IgG2a, V domains shown, also called AGRD017-2A2; fully human 2A2 antibody) VH: EVQLVESGGGLVQPGRSLRLSCAASGFTFDDYAMHWVRQAPGKGLEWVSGISWNGGTLGYADSVKGRFTISRDNAKNSLYLQMNSLRAEDTALYYCAKDTGSYSHWYFDLWGRGTLVTVSS VL: EIVMTQSPATLSVSPGERATLSCRASQSVRSNLAWYQQKPGQAPRLLIYGASTRATGIPARFSGSGSGTEFTLTISSLHSEDFAVYYCQQYNNWPTFGQGTKVEIK ; wanted: its Migration assay, at 50 ug/ml (inhibition of migration of SKBR3 cells)
38%

Numbers sourced from patent US20260132218A1.
